# test name: Microsomal clearance, human microsomes
Lab note: cut-off is 70 µL/min/mg. Strictly less in microsomal CLint at 1 µM is true. Exactly 70 µL/min/mg or more is false.

Observe how each entry below is paired with its result.
1. O=C(c1ccc2nc(-c3cccnc3)oc2c1)N1CCN(c2nc3ccccc3c(=O)[nH]2)CC1 [Compound 17]	true
2. O=C(c1ccc2nc(-c3cccnc3C3CCCC3)oc2c1)N1CCN(c2nc3ccccc3c(=O)[nH]2)CC1 [Compound 21]	true
3. O=C(c1ccc2nc(-c3ccc(C4CCCC4)nc3)oc2c1)N1CC2(CC(n3cnc(C4CC4)n3)C2)C1 [Compound 30]	false
4. O=C(c1ccc2nc(-c3cnccc3C3CCCC3)oc2c1)N1CCN(c2nc3ccccc3c(=O)[nH]2)CC1 [Compound 18]	false
5. O=C(c1ccc2nc(-c3ccc(C4CCCC4)nc3)oc2c1)N1CCN(c2nc3ccccc3c(=O)[nH]2)CC1 [Compound 22]	false

Next compound, please.
Bench note: check whether O=C(c1ccc2nc(-c3cnccc3C3CCCC3)oc2c1)N1CC(N2CCN(C(=O)c3nccs3)CC2)C1 [Compound 31] shows microsomal CLint at 1 µM below 70 µL/min/mg
false
